Tested on: HCT-116 colon
assay-procedure: NCI tumour cell line growth inhibition, 48 h
*1 amine or outer side, *2 acyl side, *3 side chain or, on linkers, in order; H or OH if unused. Where a SMILES comes first, the peptide text is derived from it. Bridges are numbered along the chain shown (N, C = ends). Roman numbers before positions name the chains, in order. [ ]: non-standard residue; d: D form. Actinocin(9to1) = Cc1c2oc3c(C)ccc(C(=O)[*:1])c3nc-2c(C(=O)[*:2])c(N)c1=O; NMeT = CN[CH](C(=O)O)[CH](C)O; Sar = CNCC(=O)O
Each entry below lists one item and its recorded TGI value.
readout: TGI

[[record]]
molecule = "O=P1(Oc2ccc(Cl)cc2Cl)Oc2ccc3ccccc3c2-c2c(ccc3ccccc23)O1"
readout = "TGI"
result = "> 75.1 µM"

[[record]]
molecule = "CC(NO)/C(=N/O)c1ccco1 (stereo not drawn)"
readout = "TGI"
result = "> 10 µM"

[[record]]
molecule = "Cc1c2oc3c(C)ccc(C(=O)NC4C(=O)NC(C(C)C)C(=O)N5CCCC5C(=O)N(C)CC(=O)N(C)C(C(C)O)C(=O)OC4C)c3nc-2c(C(=O)NC2C(=O)NC(C(C)C)C(=O)N3CCCC3C(=O)N(C)CC(=O)N(C)C(C(C)O)C(=O)OC2C)c(N)c1=O (stereo not drawn) (I: TVP[Sar][NMeT] / II: TVP[Sar][NMeT]; ester I:1-I:C, II:1-II:C; linker I:N-II:N via Actinocin(9to1); configuration not given here)"
readout = "TGI"
result = "> 100 µM"


* * *

System: HCC-2998 colon
assay-procedure: NCI tumour cell line growth inhibition, 48 h
readout: TGI

[[record]]
molecule = "COc1ccc(-c2oc(=O)ccc2-c2cc(OC)c(OC)c(OC)c2)cc1O"
assay_target = "HCC-2998 colon"
result = "10.5 µM"

[[record]]
molecule = "CC[C@@H]1C(=O)OC[C@@H]1Cc1cncn1C"
assay_target = "HCC-2998 colon"
result = "> 100 µM"

[[record]]
molecule = "O=C(O)Cc1cc(=O)[nH]c2c1/C(=N/O)CCC2"
assay_target = "HCC-2998 colon"
result = "> 100 µM"

[[record]]
molecule = "O=C1c2ccccc2C(=O)N1CC1S(=O)(=O)OCCOS1(=O)=O"
assay_target = "HCC-2998 colon"
result = "> 100 µM"

[[record]]
molecule = "COC(=O)C1=CSC2(S1)C(C(=O)OC)=CSc1c2ssc1=O (stereo unspecified)"
assay_target = "HCC-2998 colon"
result = "8.82 µM"

[[record]]
molecule = "CCN(CC)CCC(=O)c1ccc(C)cc1"
assay_target = "HCC-2998 colon"
result = "> 100 µM"


* * *

Test system: MDA-N
assay-procedure: NCI tumour cell line growth inhibition, 48 h
Each entry below lists one item and its recorded TGI value.
readout: TGI

[[record]]
compound = "CC(C)(C)[Si](C)(C)Oc1cc(CO)cc2c1cc(=N)o[n+]2[O-]"
result = "> 10 µM"

[[record]]
compound = "Nc1nc2c(c(=O)[nH]1)C(c1ccccc1)CC(=O)N2 (stereo not given)"
result = "> 100 µM"

[[record]]
compound = "CC(=O)O/C=C1/C[C@H]2[C@@H]3CCC4CC(C(C)=O)CC[C@]4(C)[C@H]3CC[C@]2(C)C1=O (stereo not given in full)"
result = "> 100 µM"

[[record]]
compound = "COc1cc(S(=O)(=O)Nc2nc(-c3ccc(N4C(=O)/C(=C/C=C/c5ccccc5)N=C4c4ccccc4)cc3)cs2)ccc1Cl"
result = "> 100 µM"

[[record]]
compound = "Oc1cc2c3c(c1)CCCN3CCC2"
result = "> 10 µM"


Data credit: PubChem BioAssay (NCI)
